- Species: Cavia porcellus
- TEST METHOD NOTES: Selectivity for guinea pig delta8-delta7 sterol isomerase (SI) site over guinea pig sigma 1 receptor
Listed here: items and their measured Ratio Ki.
Lab note: record the figure alone, no unit after it.

Some solved cases for reference:
>  <STRUCTURE AS SMILES>
COc1ccc2c(CCCCN3CCCC[C@H]3C)cccc2c1

>  <Ratio Ki>
4.5

$$$$
>  <STRUCTURE AS SMILES>
COc1ccc2c(CCCCN3CCCC(C)(C)C3)cccc2c1

>  <Ratio Ki>
5.3

$$$$
>  <STRUCTURE AS SMILES>
COc1ccc2c(CCCCN3CCC(C)CC3)cccc2c1

>  <Ratio Ki>
268

$$$$
>  <STRUCTURE AS SMILES>
COc1ccc2c(CCCN3CCCCC3)cccc2c1

>  <Ratio Ki>
4.8

$$$$

[in] Let me know recorded Ratio Ki for COc1ccc2c(CCCN3CCC(C)CC3)cccc2c1 , thanks.
[out] 13

[in] Let me know recorded Ratio Ki for COc1ccc2c(CCCCN3CCC(C)(C)CC3)cccc2c1 , thanks.
[out] 0.8

[in] Let me know recorded Ratio Ki for COc1ccc2c(CCCCN3CCC[C@H](C)C3)cccc2c1 , thanks.
[out] 4.3

[in] Let me know recorded Ratio Ki for COc1ccc2c(CCCN3CCC[C@@H](C)C3)cccc2c1 , thanks.
[out] 14

----------
- SYSTEM TESTED: Sigma 2 receptor
- TEST METHOD NOTES: Displacement of [3H]DTG from sigma 2 receptor in rat liver membranes
ASSAY METRIC: Ki

>  <MOLECULE>
COc1ccc2c(c1)CCCC2CCCCN1CCC(C)(C)CC1 (configuration not stated)

>  <Ki>
0.0175 µM

$$$$
>  <MOLECULE>
COc1ccc2c(CCCN3CCCCC3)cccc2c1

>  <Ki>
0.175 µM

$$$$
>  <MOLECULE>
COc1ccc2c(CCCCN3CCCC(C)(C)C3)cccc2c1

>  <Ki>
0.0674 µM

$$$$
>  <MOLECULE>
COc1ccc2c(CCCN3CCCC(C)(C)C3)cccc2c1

>  <Ki>
0.238 µM

$$$$
>  <MOLECULE>
COc1ccc2c(CCCCN3CCCC[C@@H]3C)cccc2c1

>  <Ki>
0.0538 µM

$$$$

[in] Let me know recorded Ki for COc1ccc2c(c1)CCCC2CCCN1CCCCC1 (configuration not stated) , thanks.
[out] 0.0262 µM

[in] Let me know recorded Ki for COc1ccc2c(CCCCN3CCCCC3)cccc2c1 , thanks.
[out] 0.151 µM

----------
- SYSTEM TESTED: 3-beta-hydroxysteroid-Delta(8),Delta(7)-isomerase (Cavia porcellus)
- Sequence (Q60490 whole entry): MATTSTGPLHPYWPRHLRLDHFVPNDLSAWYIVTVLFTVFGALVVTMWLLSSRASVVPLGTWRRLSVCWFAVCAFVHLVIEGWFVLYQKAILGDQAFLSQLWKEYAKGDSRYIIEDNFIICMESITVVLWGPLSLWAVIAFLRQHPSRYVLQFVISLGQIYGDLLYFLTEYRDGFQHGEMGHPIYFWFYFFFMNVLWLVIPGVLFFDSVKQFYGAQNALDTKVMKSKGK
- TEST METHOD NOTES: Displacement of [3H](+/-)-emopamil from delta8-delta7 sterol isomerase (SI) site in guinea pig liver membranes
Listed here: items and their measured Ki.
Could you give me the number in nM? Just the number is fine.

Some solved cases for reference:
>  <COMPOUND>
COc1ccc2c(CCCCN3CCC[C@H](C)C3)cccc2c1

>  <RESULT UNITS>
nM

>  <Ki>
2.81

$$$$
>  <COMPOUND>
COc1ccc2c(c1)CCCC2CCCN1CCCCC1(C)C (configuration not stated)

>  <RESULT UNITS>
nM

>  <Ki>
16.4

$$$$
>  <COMPOUND>
COc1ccc2c(c1)CCCC2CCCN1CCC(C)(C)CC1 (configuration not stated)

>  <RESULT UNITS>
nM

>  <Ki>
5.39

$$$$
>  <COMPOUND>
COc1ccc2c(c1)CCCC2CCCCN1CCCCC1(C)C (configuration not stated)

>  <RESULT UNITS>
nM

>  <Ki>
8.97

$$$$
>  <COMPOUND>
COc1ccc2c(c1)CCCC2CCCN1CCCCC1 (configuration not stated)

>  <RESULT UNITS>
nM

>  <Ki>
17.9

$$$$
>  <COMPOUND>
COc1ccc2c(CCCCN3CCC(C)(C)CC3)cccc2c1

>  <RESULT UNITS>
nM

>  <Ki>
1.82

$$$$
>  <COMPOUND>
COc1ccc2c(CCCN3CCCCC3)cccc2c1

>  <RESULT UNITS>
nM

>  <Ki>
37.6

$$$$
>  <COMPOUND>
COc1ccc2c(CCCCN3CCCC(C)(C)C3)cccc2c1

>  <RESULT UNITS>
nM

>  <Ki>
1.89

$$$$

[in] Let me know recorded Ki for CCCN(CCC)CCc1ccc(OC)c(OCCc2ccccc2)c1 , thanks.
[out] 14.6

[in] Let me know recorded Ki for COc1ccc2c(CCCN3CCCC(C)(C)C3)cccc2c1 , thanks.
[out] 8.71

[in] Let me know recorded Ki for COc1ccc2c(c1)CCCC2CCCCN1CCC(C)CC1 (configuration not stated) , thanks.
[out] 5.55

[in] Let me know recorded Ki for COc1ccc2c(CCCCN3CCCC[C@@H]3C)cccc2c1 , thanks.
[out] 7.2

[in] Let me know recorded Ki for COc1ccc2c(CCCCN3CCCCC3(C)C)cccc2c1 , thanks.
[out] 11.7

[in] Let me know recorded Ki for COc1ccc2c(CCCCN3CCCCC3)cccc2c1 , thanks.
[out] 19.5

[in] Let me know recorded Ki for COc1ccc2c(CCCN3CCC(C)CC3)cccc2c1 , thanks.
[out] 19.5

[in] Let me know recorded Ki for COc1ccc2c(CCCN3CCCC[C@H]3C)cccc2c1 , thanks.
[out] 11.1
